- assay name: Cytotoxicity against African green monkey Vero cells assessed as reduction in cell viability incubated for 72 hrs by MTT assay
- Type: cell-based
- settings: chlorocebus sabaeus
Below, each entry is listed with its recorded CC50 at 72 h.
Quick reminder: number only, in µg/mL, skip the unit.

- compound: "O=C(OCc1ccccc1)c1cccc(/C=C2\\SC(=S)N([C@H](Cc3ccccc3)C(=O)O)C2=O)c1"
  CC50 at 72 h [µg/mL]: 23.2

Now for the compound whose CC50 at 72 h we want.
Item under review: COC(=O)c1cccc(/C=C2\SC(=S)N([C@H](Cc3ccccc3)C(=O)O)C2=O)c1 . Reported CC50 at 72 h? 32.5
